Reference source for all entries: patent US9242978B2

Experiment: Evaluation of organ selectivity (non-binding drug concentration in liver and pancreas after oral administration)
Type: in vivo, normal mice (C57BL/6j mice)
Details: C57BL/6j, mouse, liver, mice, dose 30 mg/kg, 150 minutes after administration, read-out: Non-binding concentration (ng/mL) Liver
Experimental: A test compound suspended in 10% (v/v) Gelucire 44/14 (GATTEFOSSE) was orally administered to normal mice (C57BL/6j mice, CLEA Japan, Inc.). […] The ratio of the non-binding concentration of the drug in the […] was calculated, and thus, liver selectivity was evaluated. […]
For each record, write down the corresponding concentration at 150 min.
Numbers only, in ng/mL.

CCNC(=O)N1CC[C@H](C[C@@H](C(=O)Nc2ncc(F)s2)c2ccc(S(=O)(=O)C3CC3)cc2)C1 ... 47

Turning now to a further record.
Param item = "CNC(=O)N1CC[C@H](C[C@@H](C(=O)Nc2ncc(F)s2)c2ccc(S(=O)(=O)C3CC3)cc2)C1" ; retrieve measured concentration at 150 min.
23

###

assay: Evaluation of organ selectivity (non-binding drug concentration in liver and pancreas after oral administration); format: in vivo, normal mice (C57BL/6j mice); conditions: C57BL/6j, mouse, liver and pancreas, mice, dose 3 mg/kg, 150 minutes after administration
PROPERTY MEASURED: selectivity ratio at 150 min
Numbers only.

Param item = CC(=O)N1CC[C@H](C[C@@H](C(=O)Nc2ccc(C)cn2)c2ccc(S(=O)(=O)C3CC3)cc2)C1 [Example 23] ; retrieve measured selectivity ratio at 150 min.
9

###

Biological target: GST-GK derived from human liver GK (Homo sapiens, UniProt P35557)
Construct: made in house; host or cells: Escherichia coli DH5α
Sequence (P35557 1-466 isoform P35557-2): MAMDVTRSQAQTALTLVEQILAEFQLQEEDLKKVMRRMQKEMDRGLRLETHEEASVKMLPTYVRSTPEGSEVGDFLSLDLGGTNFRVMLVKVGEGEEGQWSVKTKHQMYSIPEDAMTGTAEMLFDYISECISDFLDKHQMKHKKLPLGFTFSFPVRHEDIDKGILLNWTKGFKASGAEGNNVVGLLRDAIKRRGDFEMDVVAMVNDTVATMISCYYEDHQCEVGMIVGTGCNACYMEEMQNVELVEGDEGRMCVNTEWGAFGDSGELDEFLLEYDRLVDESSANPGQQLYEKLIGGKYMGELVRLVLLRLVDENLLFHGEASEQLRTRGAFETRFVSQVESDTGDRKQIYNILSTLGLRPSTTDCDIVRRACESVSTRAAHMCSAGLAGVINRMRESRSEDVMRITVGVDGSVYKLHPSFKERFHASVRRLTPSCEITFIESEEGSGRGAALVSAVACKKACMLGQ
Assay: In vitro GK activating action measurement test
Assay type: biochemical
Details: 10 min; test compound 1 μmol/L, glucose 2.5 mmol/L, 25° C.; read-out: GK activation rate (%)
PROPERTY MEASURED: activity at 1 µM (%)
One number for each entry, in %.

Example results:
CNC(=O)N1CC[C@H](C[C@@H](C(=O)Nc2ncc(OC)s2)c2ccc(S(=O)(=O)C3CC3)cc2)C1 [Example 14] ... 809
CNC(=O)N1CC[C@H](C[C@@H](C(=O)Nc2ncc(Cl)s2)c2ccc(S(=O)(=O)C3CC3)cc2)C1 [Example 15] ... 737
O=C(Nc1ncc(F)s1)[C@H](C[C@H]1CCN(C(=O)CO)C1)c1ccc(S(=O)(=O)C2CC2)cc1 [Example 13] ... 443

Turning now to a further record.
Param item = CCCNC(=O)N1CC[C@H](C[C@@H](C(=O)Nc2ncc(F)s2)c2ccc(S(=O)(=O)C3CC3)cc2)C1 [Example 6] ; retrieve measured activity at 1 µM.
422

###

Experiment: Evaluation of organ selectivity (non-binding drug concentration in liver and pancreas after oral administration)
Format: in vivo, normal mice (C57BL/6j mice)
Details: C57BL/6j, mouse, pancreas, mice, dose 10 mg/kg, 150 minutes after administration, read-out: Non-binding concentration (ng/mL) Pancreas
Experimental: A test compound suspended in 10% (v/v) Gelucire 44/14 (GATTEFOSSE) was orally administered to normal mice (C57BL/6j mice, CLEA Japan, Inc.). […] The ratio of the non-binding concentration of the drug in the […] was calculated, and thus, liver selectivity was evaluated. […]
PROPERTY MEASURED: concentration at 150 min (ng/mL)
Answers are plain numbers, in ng/mL.

CNC(=O)N1CC[C@H](C[C@@H](C(=O)Nc2ccc(C)cn2)c2ccc(S(=O)(=O)C3CC3)cc2)C1 ... 0.58
Cc1ccc(NC(=O)[C@H](C[C@H]2CCN(C(N)=O)C2)c2ccc(S(=O)(=O)C3CC3)cc2)nc1 ... 2

Turning now to a further record.
Param item = "CC(=O)N1CC[C@H](C[C@@H](C(=O)Nc2ncc(F)s2)c2ccc(S(=O)(=O)C3CC3)cc2)C1" ; retrieve measured concentration at 150 min.
3.8

###

assay: Evaluation of organ selectivity (non-binding drug concentration in liver and pancreas after oral administration); type: in vivo, normal mice (C57BL/6j mice); conditions: C57BL/6j, mouse, liver, mice, dose 10 mg/kg, 150 minutes after administration, read-out: Non-binding concentration (ng/mL) Liver
For each record, write down the corresponding concentration at 150 min.
Answers are plain numbers, in ng/mL.

Example results:
CNC(=O)N1CC[C@H](C[C@@H](C(=O)Nc2ccc(C)cn2)c2ccc(S(=O)(=O)C3CC3)cc2)C1 ... 10
Cc1ccc(NC(=O)[C@H](C[C@H]2CCN(C(N)=O)C2)c2ccc(S(=O)(=O)C3CC3)cc2)nc1 ... 50

Turning now to a further record.
Param item = "CC(=O)N1CC[C@H](C[C@@H](C(=O)Nc2ncc(F)s2)c2ccc(S(=O)(=O)C3CC3)cc2)C1" ; retrieve measured concentration at 150 min.
65

###

test: Evaluation of organ selectivity (non-binding drug concentration in liver and pancreas after oral administration); format: in vivo, normal mice (C57BL/6j mice); conditions: C57BL/6j, mouse, pancreas, mice, dose 3 mg/kg, 150 minutes after administration, read-out: Non-binding concentration (ng/mL) Pancreas
PROPERTY MEASURED: concentration at 150 min (ng/mL)
One number for each entry, in ng/mL.

Param item = CC(=O)N1CC[C@H](C[C@@H](C(=O)Nc2ccc(C)cn2)c2ccc(S(=O)(=O)C3CC3)cc2)C1 [Example 23] ; retrieve measured concentration at 150 min.
0.33

###

For each record, write down the corresponding activity at 1 µM.
Target: GST-GK derived from human liver GK (Homo sapiens, UniProt P35557)
Construct: made in house; host or cells: Escherichia coli DH5α
Sequence (P35557 1-466 isoform P35557-2): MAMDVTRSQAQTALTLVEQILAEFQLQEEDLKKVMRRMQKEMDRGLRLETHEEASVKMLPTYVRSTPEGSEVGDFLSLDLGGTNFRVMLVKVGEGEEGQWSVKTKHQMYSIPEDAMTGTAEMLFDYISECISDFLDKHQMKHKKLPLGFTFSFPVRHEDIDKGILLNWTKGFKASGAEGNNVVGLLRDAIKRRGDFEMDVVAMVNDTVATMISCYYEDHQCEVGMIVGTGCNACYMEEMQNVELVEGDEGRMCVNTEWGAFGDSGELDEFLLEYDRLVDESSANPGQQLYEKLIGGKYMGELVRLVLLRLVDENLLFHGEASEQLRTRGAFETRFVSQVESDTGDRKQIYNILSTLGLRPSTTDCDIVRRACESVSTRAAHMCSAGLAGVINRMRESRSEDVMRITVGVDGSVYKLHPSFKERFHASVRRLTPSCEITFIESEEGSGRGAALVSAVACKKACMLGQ
Assay: In vitro GK activating action measurement test
Assay type: biochemical
Details: 10 min; test compound 1 μmol/L, glucose 2.5 mmol/L, 25° C.; read-out: GK activation rate (%)
Give bare numbers, in %.

Please report activity at 1 µM for every entry that follows.
1. Cc1ccc(NC(=O)[C@H](C[C@H]2CCN(C(N)=O)C2)c2ccc(S(=O)(=O)C3CC3)cc2)nc1
2. CNC(=O)N1CC[C@H](C[C@@H](C(=O)Nc2ccc(C)cn2)c2ccc(S(=O)(=O)C3CC3)cc2)C1
3. CNC(=S)N1CC[C@H](C[C@@H](C(=O)Nc2ncc(F)s2)c2ccc(S(=O)(=O)C3CC3)cc2)C1

1: 727; 2: 437; 3: 535

Please report activity at 1 µM for every entry that follows.
1. COC(=O)N1CC[C@H](C[C@@H](C(=O)Nc2ncc(F)s2)c2ccc(S(=O)(=O)C3CC3)cc2)C1
2. COc1cnc(NC(=O)[C@H](C[C@H]2CCN(C(C)=O)C2)c2ccc(S(=O)(=O)C3CC3)cc2)s1
3. CNC(=O)N1CC[C@H](C[C@@H](C(=O)Nc2ncc(C)s2)c2ccc(S(=O)(=O)C3CC3)cc2)C1
4. CC(=O)N1CC[C@H](C[C@@H](C(=O)Nc2ncc(F)s2)c2ccc(S(=O)(=O)C3CC3)cc2)C1

1: 828; 2: 877; 3: 484; 4: 803
